The listing below reports pIC50 for molecules tested on USP30 (Homo sapiens (Human), UniProt Q70CQ3).
Sequence (Q70CQ3 57-517): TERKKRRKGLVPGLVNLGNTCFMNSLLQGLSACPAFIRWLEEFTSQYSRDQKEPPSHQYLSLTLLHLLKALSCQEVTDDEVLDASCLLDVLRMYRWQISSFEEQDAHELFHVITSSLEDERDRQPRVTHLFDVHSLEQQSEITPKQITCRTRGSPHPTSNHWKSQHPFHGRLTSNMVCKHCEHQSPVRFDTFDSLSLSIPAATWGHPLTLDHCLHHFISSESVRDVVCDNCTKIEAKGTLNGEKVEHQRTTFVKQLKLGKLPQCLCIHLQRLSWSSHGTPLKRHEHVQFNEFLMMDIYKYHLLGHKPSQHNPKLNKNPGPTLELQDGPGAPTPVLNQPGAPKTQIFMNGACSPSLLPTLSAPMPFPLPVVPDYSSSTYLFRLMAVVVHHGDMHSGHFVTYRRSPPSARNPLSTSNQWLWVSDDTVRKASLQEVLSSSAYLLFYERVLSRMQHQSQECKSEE
pIC50: −log10 of the molar value.

Field: example entries. Status: answers known.
MOLECULE	pIC50
CC(C)N(C(=O)C1CCN(C#N)C1)c1nc(-c2ccccc2)cs1 (stereo not shown)	5.00 to 6.00
CNC(=O)c1cc(-c2ccccc2)c2c(c1)N(C(=O)[C@@H]1CCN(C#N)C1)CC2	5.00 to 6.00
N#CN1CCC(F)(C(=O)N2CCc3cc(-c4ccnn4Cc4ccccc4)ccc32)C1 (stereo not shown)	5.00 to 6.00
CN(C(=O)[C@H]1CN(C#N)C[C@@H]1CO)c1ncc(-c2ccccc2)s1 (relative stereo)	6.00 to 7.00
N#CN1CC[C@@H](C(=O)N2CCc3ccc(-c4ccccc4)cc32)C1	5.00 to 6.00

Required: pIC50, one value per molecule below.
1. N#CN1CC[C@@H](C(=O)N2CCOc3ccc(-c4ccccc4)cc32)C1
2. CN(C(=O)[C@@H]1CCN(C#N)C1)c1cc(-c2ccccc2)cnn1

1: 6.00 to 7.00; 2: 5.00 to 6.00

----------
The reader will find IC50 measurements below, all made with USP30 (Homo sapiens (Human), UniProt Q70CQ3).

Here is how some molecules turned out for IC50.
MOLECULE	TARGET OR SYSTEM	IC50
C[C@H]1CN(C#N)C[C@@H]1C(=O)N1CCc2cc(-c3ccccc3)ccc21	USP30 (Homo sapiens (Human), UniProt Q70CQ3)	1000 to 10000 nM
N#CN1CCC(F)(C(=O)N2CCc3cc(-c4ccnn4Cc4ccccc4Cl)ccc32)C1 (centres unmarked)	USP30 (Homo sapiens (Human), UniProt Q70CQ3)	1000 to 10000 nM
N#CN1CCC(F)(C(=O)N2CCc3cc(-c4ccnn4Cc4cccc(Cl)c4)ccc32)C1 (centres unmarked)	USP30 (Homo sapiens (Human), UniProt Q70CQ3)	100 to 1000 nM
N#CN1CCC(F)(C(=O)N2CCc3cc(-c4cccnc4)ccc32)C1 (racemic)	USP30 (Homo sapiens (Human), UniProt Q70CQ3)	100 to 1000 nM
CN1CCN(c2ccc(-c3ccc4c(c3)CCN4C(=O)C3(F)CCN(C#N)C3)cc2)CC1 (centres unmarked)	USP30 (Homo sapiens (Human), UniProt Q70CQ3)	100 to 1000 nM

Batch request: IC50 for each of the following molecules.
1. CCN(C(=O)C1CCN(C#N)C1)c1nc(-c2ccccc2)cs1 (centres unmarked)
2. N#CN1CCC(F)(C(=O)N2CCc3cc(-c4cccc(NS(=O)(=O)C5CC5)c4)ccc32)C1 (centres unmarked)
3. N#CN1CCC2(CCN(c3cccc(-c4ccccc4)c3)C2=O)C1 (centres unmarked)

1. 1000 to 10000 nM
2. 100 to 1000 nM
3. 100 to 1000 nM

----------
What follows is a collection of IC50 values obtained with USP30 (Homo sapiens (Human)).

MOLECULE	IC50
N#CN1CC[C@H](C(=O)N2CCc3c(-c4ccccc4)ccnc32)C1 [Example 27]	0.1 to 1 µM
COc1ccc(-c2ccc3c(c2)CCN3C(=O)C2(F)CCN(C#N)C2)cn1 (centres unmarked) [Example 43]	0.1 to 1 µM
CN(C(=O)C1(F)CCN(C#N)C1)c1nc2ccccc2s1 (centres unmarked) [Example 9]	0.1 to 1 µM

Batch: IC50 for all items listed.
1. N#CN1CC[C@@H](C(=O)N2CCc3cc(-c4cccc5[nH]ncc45)cnc32)C1 [Example 61]
2. CN(C(=O)[C@H]1CCN(C#N)C1)c1ncc(-c2ccccc2)s1 [Example 3]

1. 1 to 10 µM
2. 0.1 to 1 µM

----------
The listing below reports IC50 for molecules tested on USP30 (Homo sapiens (Human), UniProt Q70CQ3).

Check out these entries, answers already filled in.
MOLECULE	TARGET OR SYSTEM	IC50
CN(C(=O)C1CCN(C#N)C1)c1ccc(-c2ccccc2)cn1 (stereo in doubt) [Example 31]	USP30 (Homo sapiens (Human), UniProt Q70CQ3)	1 to 10 µM
CN(Cc1csc(-c2ccccc2)n1)C(=O)C1CCN(C#N)C1 (centres unmarked) [Example 47]	USP30 (Homo sapiens (Human), UniProt Q70CQ3)	0.1 to 1 µM
CN(Cc1nc2ccccc2s1)C(=O)C1CCN(C#N)C1 (centres unmarked) [Example 45]	USP30 (Homo sapiens (Human), UniProt Q70CQ3)	1 to 10 µM

// input: 2 molecules below; output: IC50 for each
1. N#CN1CC[C@H](C(=O)N2CCc3cc(-c4cccc(Cl)c4)ccc32)C1 [Example 12]
2. N#CN1CC[C@](F)(C(=O)N2CCc3cc(-c4cccc(Cl)c4)cnc32)C1 [Example 56]

["0.1 to 1 µM", "< 0.1 µM"]

Go through the list and state IC50 for each entry.
1. N#CN1CCC(F)(C(=O)N2CCc3cc(-c4ccnn4Cc4cccnc4)ccc32)C1 (centres unmarked) [Example 63]
2. N#CN1CCC(F)(C(=O)N2CCc3cc(C(=O)NCc4ccccc4)ccc32)C1 (centres unmarked) [Example 67]
3. C[C@@H]1CN(C#N)C[C@H]1C(=O)N1CCc2cc(-c3ccccc3Cl)ccc21 (relative stereo) [Example 13]
4. N#CN1CCC(F)(C(=O)N2CCc3cc(-c4ccnn4Cc4ccc(Cl)cc4)ccc32)C1 (centres unmarked) [Example 66]
5. N#CN1CC[C@H](C(=O)N2CCCc3cc(-c4ccccc4)ccc32)C1 [Example 23]

["1 to 10 µM", "1 to 10 µM", "0.1 to 1 µM", "0.1 to 1 µM", "0.1 to 1 µM"]

For each of the items listed, what is its IC50?
1. CCc1cccc(-c2cccc3c2CCN3C(=O)[C@@H]2CCN(C#N)C2)c1 [Example 50]
2. N#CN1CCC(C(=O)N2CCc3nc(-c4ccccc4)ccc32)C1 (centres unmarked) [Example 51]
3. N#CN1CC[C@H](C(=O)N2CCc3cc(-c4ccccc4)ccc32)C1 [Example 18]
4. Cc1ccc2[nH]ncc2c1-c1ccc2c(c1)CCN2C(=O)C1(F)CCN(C#N)C1 (centres unmarked) [Example 41]
5. N#CN1CCC(F)(C(=O)N2CCc3cc(-c4cnn(Cc5ccccc5)c4)ccc32)C1 (centres unmarked) [Example 59]
6. N#CN1CC[C@](F)(C(=O)N2CCc3cc(-c4ccccc4)ccc32)C1 [Example 54]

1. 0.1 to 1 µM
2. 1 to 10 µM
3. 0.1 to 1 µM
4. 0.1 to 1 µM
5. 1 to 10 µM
6. 0.1 to 1 µM

Could you share which IC50 value was measured for N#CN1C[C@H]2CN(c3ncc(-c4ccccc4)s3)C(=O)[C@H]2C1 (relative stereo) [Example 48] ?
1 to 10 µM
